- System: Botrytis cinerea
- Assay Protocol: Vine grey mold (grape berries)
- Type: in vivo
- Condition Set: grape berries treated with 50 ppm, average of six berries, 7-10 days, read-out: % DISEASE CONTROL 50 ppm
pest or weed control at 50 ppm by entry:
Property: pest or weed control at 50 ppm

[[record]]
compound = "Cn1cc(C(=O)Nc2ccccc2O[C@@H]2C[C@H]3CC[C@@H]2C3)c(C(F)F)n1 (relative stereo)"
result = "0%"

[[record]]
compound = "CC(C)C1CCCC=C1c1ccccc1NC(=O)c1cn(C)nc1C(F)(F)F (centres unmarked)"
result = "7%"

[[record]]
compound = "Cn1cc(C(=O)Nc2ccccc2OCC2CCCC2)c(C(F)(F)F)n1"
result = "3%"

[[record]]
compound = "Cn1nc(C(F)(F)F)c(C(=O)Nc2ccccc2C2CCCCC2)c1F"
result = "93%"

[[record]]
compound = "Cn1cc(C(=O)Nc2ccccc2C2CCCCCC2)c(I)n1"
result = "53%"

[[record]]
compound = "Cn1cc(C(=O)Nc2ccccc2[C@@H]2C[C@H]3CC[C@@H]2C3)c(C(F)(F)F)n1 (relative stereo)"
result = "80%"

[[record]]
compound = "Cn1cc(C(=O)Nc2ccccc2CC2CCCC2)c(C(F)(F)F)n1"
result = "0%"

[[record]]
compound = "Cn1cc(C(=O)Nc2ccccc2CC2CCCCC2)c(C(F)(F)F)n1"
result = "2%"

[[record]]
compound = "Cn1cc(C(=O)Nc2ccccc2C2CCCCC2)c(Br)n1"
result = "50%"

[[record]]
compound = "Cc1nn(C)cc1C(=O)Nc1ccccc1[C@@H]1C[C@H]2CC[C@@H]1C2 (relative stereo)"
result = "25%"

[[record]]
compound = "Cn1cc(C(=O)Nc2ccccc2C2CCCCC2)c(C#N)n1"
result = "29%"

[[record]]
compound = "Cn1cc(C(=O)Nc2ccccc2C=C2CCCCCC2)c(C(F)F)n1"
result = "0%"

[[record]]
compound = "CC1C=C(c2ccccc2NC(=O)c2cn(C)nc2C(F)(F)F)CC1 (centres unmarked)"
result = "37%"

[[record]]
compound = "Cc1cccc(NC(=O)c2cn(C)nc2C(F)(F)F)c1C1CCCCC1"
result = "32%"

[[record]]
compound = "C[C@@H]1CCC[C@H](C)[C@H]1Oc1ccccc1NC(=O)c1cn(C)nc1C(F)(F)F"
result = "8%"

[[record]]
compound = "Cn1cc(C(=O)Nc2ccc(F)cc2C2CCCCC2)c(C(F)(F)F)n1"
result = "58%"

[[record]]
compound = "Cn1cc(C(=O)Nc2ccccc2[C@@H]2C[C@H]3CC[C@@H]2C3)c(C(F)F)n1 (relative stereo)"
result = "97%"

